system: SARS-CoV-2 (USA_WA1/2020); assay: microbe, parasite or virus in culture; assay type: cell-based; details: Severe acute respiratory syndrome coronavirus 2, Vero C1008; SARS-CoV-2 CPE assay, Vero E6 cells; efficacy; read-out: CPE % Efficacy
reported-property: Emax (%)
Report as a plain number; the unit % is understood.

Solved cases below.
CCOC(=O)c1c(CSc2ccccc2)n(C)c2cc(Br)c(O)c(CN(C)C)c12    105
CC(/C=C/[C@@H]1C[C@]1(C)c1ccc2c(c1)C(C)(C)CCC2(C)C)=C\C(=O)O    57
CC(=O)O[C@@H]1C[C@H](O)[C@@]23CO[C@@H](O)[C@]1(C)[C@@H]2C[C@@H](O)[C@]1(C)[C@@H]3C(=O)[C@H](OC(C)=O)[C@@]2(C)[C@H](c3ccoc3)C[C@H]3O[C@]321    88.9
CC#C[C@@H](CC(=O)O)c1ccc(OCc2cccc(-c3ccc(C(F)(F)F)cc3)c2)cc1    106

Continue with the compound presented below.
The recorded Emax for entry Oc1ccc(-c2nc(-c3ccncc3)c(-c3ccc(F)cc3)[nH]2)cc1 equals 95.8

---

test: in vitro; conditions: African green monkey
Where a name gives a salt, the structure may show the parent alone.
reported-property: cytotoxicity at 72 h (%)
All answers are understood in %, so give the number only.

Clc1ccc2c(c1)N=C(N1CCNCC1)c1ccccc1N2    20.1
Cc1nc(Nc2ccc(F)cc2)nc(N2CCc3ccccc3C2C)c1C (stereo not shown) [Revaprazan HCl]    49.9
c1ccc(-c2cc(CCC3CCNCC3)c3ccccc3n2)cc1    108
Nc1nc(Nc2ccc3c(c2)CC[C@@H](N2CCCC2)CC3)nn1-c1cc2c(nn1)-c1ccccc1CCC2    115
Fc1ccc2[nH]ccc2c1-c1nc(N2CCOCC2)c2sc(CN3CCN(CC4CC4)CC3)cc2n1    52.2
CN1CCC(=C2c3ccccc3CCc3sccc32)CC1    13.4
CCNCCc1ccc(CN(CC)c2cc(OC)ccc2[C@@H]2CCc3cc(O)ccc3C2)cc1    104
Cc1cn(CCN2CCN(c3ccccc3-c3cc(C#N)cc(C(=O)NCCCN4CCCC4)c3)CC2)c2ccccc12    108
CCC(=O)c1ccc2c(c1)N(CCCN(C)C)c1ccccc1S2 [Propionylpromazine hydrochloride]    19.8
COc1cc(C(C)=O)ccc1OCCCN1CCC(c2noc3cc(F)ccc23)CC1    16.4

According to the records, this molecule CCCCCCCCn1cc(CC(N)=O)c2cc(-c3cccc(C)c3)ccc21 displays cytotoxicity at 72 h of 106

What the record says about N#Cc1ccc2[nH]cc(CCCCN3CCN(c4ccc5oc(C(N)=O)cc5c4)CC3)c2c1 [Vilazodone Hydrochloride] : cytotoxicity at 72 h is 25.3

For record CCCCOc1cc(C(=O)NCCN(CC)CC)c2ccccc2n1 the listed cytotoxicity at 72 h is 0

Per the records, this molecule ( COCCN1CCN(Cc2ccc(-c3n[nH]c4c3C(=O)c3c(NC(=O)NN5CCOCC5)cccc3-4)cc2)CC1 ) has cytotoxicity at 72 h equal to 37.9

Lab note: Cc1cc(C2CCCCC2)n(O)c(=O)c1 gave cytotoxicity at 72 h of 56.1

Lookup result for CN(C)c1cc2c(cc1Sc1nc3c(N)nccc3n1CCNCC(C)(C)C)OCO2 ; measured cytotoxicity at 72 h: 27.7

cytotoxicity at 72 h reading for CN(C)CCOC(c1ccccc1)c1ccc(Br)cc1 (stereo not shown) [Bromodiphenhydramine] : 0

Lab note: C=CC(=O)N[C@H]1CCOC[C@H]1Nc1ncc2cc(-c3c(Cl)c(OC)cc(OC)c3Cl)ccc2n1 gave cytotoxicity at 72 h of 0

For Cn1c(NC[C@@H](N)Cc2ccccc2)nc(-c2ccncc2)c(-c2ccc3ccccc3c2)c1=O the molecule record lists cytotoxicity at 72 h as 35.4

Summary for this molecule, CC(CN1c2ccccc2Sc2ccccc21)N(C)C (stereo not shown) : cytotoxicity at 72 h is 15.4

Reported cytotoxicity at 72 h for CN(C)[C@@H](CCOc1cccc2ccccc12)c1ccccc1 was 32

---

test system: SARS-CoV-2 (USA_WA1/2020); experiment: microbe, parasite or virus in culture; type: cell-based; settings: Severe acute respiratory syndrome coronavirus 2, Vero C1008; SARS-CoV-2 CPE assay, Vero E6 cells; efficacy; read-out: CPE % Efficacy
reported-property: Emax
Kindly report the value followed by its unit.

Example entries and their recorded answers appear below.
COC(=O)[C@@]12OC[C@]34[C@H]([C@@H](O)[C@@H]1O)[C@@]1(C)CC(=O)C(O)=C(C)[C@@H]1C[C@H]3OC(=O)[C@H](OC(=O)/C=C(\C)C(C)C)[C@@H]24 [Bruceantin]    42.5%
CN1CCC(=C2c3ccccc3CCc3sccc32)CC1    111%
CCNCCc1ccc(CN(CC)c2cc(OC)ccc2[C@@H]2CCc3cc(O)ccc3C2)cc1    104%

Entry CC(CN1c2ccccc2Sc2ccc(S(=O)(=O)N(C)C)cc21)N(C)C (centres unmarked) ; Emax = 36.6%

---

Each entry below carries its reported cytotoxicity.
experiment: in vitro; settings: African green monkey
Value expressed in %; do not type the unit.

S=C(NCc1ccc2c(c1)OCO2)N1CCN(c2ncnc3c2oc2ccccc23)CC1    30.1

The molecule listed as Cc1ccc(-c2cc(C(F)(F)F)nn2-c2ccc(S(N)(=O)=O)cc2)cc1 shows cytotoxicity equal to 9

---

Items are presented alongside their recorded % Cytotox.
test system: Vero E6 cells; conditions: cytotoxicity counter-assay, Vero E6 cells without virus
Report only the number, with the unit % understood.

CS(=O)(=O)NCC1CCC(Nc2nc3c(s2)CCSc2ccccc2-3)CC1 (centres unmarked)    0.0
Cl.Cl.Clc1ccccc1CNCC1CCC(CNCc2ccccc2Cl)CC1 (centres unmarked) [AY 9944 dihydrochloride]    48.2
Cc1nc2ccc(Oc3ccc(F)cc3)cc2c(=O)n1C[C@H]1CCCN(C(C)C)C1    0.0

% Cytotox on Vero E6 cells for COc1cc(-c2cc(-c3ccc(N4CCNCC4)cc3)cnc2C)cc(OC)c1OC is 53.6

So the reported % Cytotox for C[C@@H]1O[C@@H](O[C@H]2[C@H](OC(=O)[C@]34CCC(C)(C)C[C@H]3C3=CCC5[C@@]6(C)CC[C@H](O[C@@H]7O[C@H](CO[C@@H]8OC[C@H](O)[C@H](O)[C@H]8O)[C@@H](O)[C@H](O)[C@H]7O)C(C)(C)C6CC[C@@]5(C)[C@]3(C)C[C@H]4O)OC[C@@H](O)[C@@H]2O)[C@H](O)[C@H](O)[C@H]1O[C@@H]1OC[C@H](O)[C@H](O[C@@H]2OC[C@@H](O)[C@H](O)[C@H]2O)[C@H]1O (some centres unmarked) , on Vero E6 cells, turned out to be 58.6

---

test system: Vero E6 cells; details: cytotoxicity counter-assay, Vero E6 cells without virus
reported-property: % Cytotox (%)
Just the number in %, nothing appended.

Known % Cytotox results, listed for orientation:
CC(C)c1onc(-c2c(Cl)cccc2Cl)c1COc1ccc(/C=C/c2cccc(C(=O)O)c2)c(Cl)c1 [GW-4064X]    60.4
CN1CCN(S(=O)(=O)c2ccc(-c3cnc(N)c(C(=O)Nc4cccnc4)n3)cc2)CC1    41.0
COc1cccc(NC[C@@H](O)Cn2c3ccc(Br)cc3c3cc(Br)ccc32)c1 [(R)-P7C3-Ome]    32.2

The reported % Cytotox of the compound CO/C1=C\C(C)=C\[C@@H](C)[C@@H](O)[C@@H](C)C/C(C)=C/C=C/[C@H](OC)[C@@H]([C@@H](C)[C@@H](O)[C@H](C)[C@@]2(O)C[C@@H](O)[C@H](C)[C@@H](C(C)C)O2)OC1=O was 58.6

Summary for this compound, CCCOC(C(=O)OC1CCN(C)CC1)(c1ccccc1)c1ccccc1.Cl [Propiverine hydrochloride] : % Cytotox is 0.0

The recorded % Cytotox for CCCCN1[C@@H]2CC[C@H]1CC(OC(c1ccc(F)cc1)c1ccc(F)cc1)C2.Cl (some centres unmarked) [JHW 007 hydrochloride] is 38.8

For reference, reported % Cytotox for C[C@H](CCC(=O)O)C[C@H](C)C[C@H](C)C(=O)/C=C(\O)[C@H](C)C[C@H](C)C/C=C/[C@@H](C)[C@@H](O)[C@@H](C)[C@@H](O)C[C@@H]1CC[C@@](C)([C@H]2CC[C@@](C)([C@@H](C)O)O2)O1 [Ionomycin(Calciumsalt)] stands at 69.7

Lookup result for COc1ccc(-c2cc(C(O)C3CCCCN3)c3ccccc3n2)cc1.Cl.Cl (centres unmarked) ; measured % Cytotox: 49.3

Data point: COc1cccc(-n2c(=O)[nH]c3cc(Cl)n(-c4ccc(-c5cccc(OC)c5O)cc4)c3c2=O)c1 ; % Cytotox = 58.4

The compound listed as O=C1NC(=O)/C(=C/c2ccc3c(c2)OC(F)(F)O3)S1 has a reported % Cytotox of 31.8

Quick note, % Cytotox for Cc1cc(CN)cc(C)c1NC(=O)c1ccc(-c2cc(Cl)ccc2Cl)o1 landed at 52.7

Memo: Br.O=C(CN1C2=NCCN2c2ccccc21)c1ccc(-c2ccccc2)cc1 [CCT 031374 hydrobromide] , reported % Cytotox: 33.8

Values from paper PMC7942396
